Experiment: yeast display, Sf9 membrane polyspecificity reagent, FACS + sequencing; frameworks hold sequencing errors
quantity measured: polyreactivity (PSR sort gate)

Record excerpt, results attached:
{"sequence entry": "QVQLVESGGGLVQAGGSLRLSCAASGRTFYYYAMGWYRQAPGKERELVAGISWSAGSTYYADSVKGRFTISRDNAKNTVYLQMNSLKPEDTAVYYCAARYWQSYRSQVTHSSTLDYWGQGTQVTVSS", "result": "low polyreactivity"}
{"sequence entry": "QGQLVESGGGLVQAGGSLRLSCAASGRIFQMYTMGWYRQAPGKERELDAAITSGTSTSYADSVKGRFTISRDNAKNPFYLQMNSLKPEDTAVYYCNKGSVCYSSVFVPYESDYWGQGTQVTVSS", "result": "low polyreactivity"}
{"sequence entry": "QVQLVESGGGLVQAGGSLRLSCAASGITIVRYAMGWYRQAPGKERELVAAINRSGGSTYYADSVKGRFTISRDNAKNTVYLQMNSLKPEDTAVYYCAARLYGKYDPPGYYYWGQVTQVTVSS", "result": "high polyreactivity"}
{"sequence entry": "QVQLVESGGGLVQAGGSLRLSCAASGFIFAHNAMGWYRQAPGKARELVAAITSSGGSTYYADSVKGRFTISRDNAKNTVYLQKNSLKPEDTAVYYCNAYTYARRGYDYWGQGTQVTVSS", "result": "high polyreactivity"}

Form field polyreactivity (PSR sort gate), entry QVQLVESGGGLVQAGGSLRLSCAASGSTFDIYVMGWYRQAPGKERELVAAISRVGNTSYADSVKGRFTISRDNAKNTVYLQMNSLNPEDTAVYYCAADAPSWYDRQYDYWGQGNQVTVSS : low polyreactivity

meta.source: the nanobody polyreactivity screen of Harvey et al. (2022)
